Reference for the values: ChEMBL document CHEMBL4339185

system: Staphylococcus epidermidis; experiment: Antimicrobial activity against Staphylococcus epidermidis ATCC 12228 incubated for 18 hrs by serial microdilution method; assay type: functional; conditions: ATCC 12228, 18 h
Measurement type: MIC
Please answer using the number first and the unit second.

| Compound structure string | Result |
| --- | --- |
| CO[C@H]1/C=C/O[C@@]2(C)Oc3c(C)c(O)c4c(O)c(c(/C=N/NC5=NCCN5)c(O)c4c3C2=O)NC(=O)/C(C)=C\C=C\[C@H](C)[C@H](O)[C@@H](C)[C@@H](O)[C@@H](C)[C@H](OC(C)=O)[C@@H]1C | 0.0078 µg/mL |

Incoming: Any idea what its MIC is? The molecule is CO[C@H]1/C=C/O[C@@]2(C)Oc3c(C)c(O)c4c(O)c(c(CNC5CCN(S(C)(=O)=O)CC5)c(O)c4c3C2=O)NC(=O)/C(C)=C\C=C\[C@H](C)[C@H](O)[C@@H](C)[C@@H](O)[C@@H](C)[C@H](OC(C)=O)[C@@H]1C
Outgoing: 0.5 µg/mL

====

test system: Staphylococcus aureus; experiment: Antimicrobial activity against MLSB-resistant Staphylococcus aureus incubated for 18 hrs by serial microdilution method; assay type: functional
Define the label as rule met when MIC is strictly less than 1 µg/mL and as rule not met in all remaining cases.

| Molecule | Label value |
| --- | --- |
| CO[C@H]1/C=C/O[C@@]2(C)Oc3c(C)c(O)c4c(O)c(c5c(nc6cc(C)ccn65)c4c3C2=O)NC(=O)/C(C)=C\C=C\[C@H](C)[C@H](O)[C@@H](C)[C@@H](O)[C@@H](C)[C@H](OC(C)=O)[C@@H]1C | rule met |
| CCS(=O)(=O)N1CCN(Cc2c3c(O)c4c(O)c(C)c5c(c4c2O)C(=O)[C@@](C)(O/C=C/[C@H](OC)[C@@H](C)[C@@H](OC(C)=O)[C@H](C)[C@H](O)[C@H](C)[C@@H](O)[C@@H](C)/C=C/C=C(/C)C(=O)N3)O5)CC1 | rule met |
| CO[C@H]1/C=C/O[C@@]2(C)Oc3c(C)c(O)c4c(O)c(c(/C=N/NC(C)(C)C)c(O)c4c3C2=O)NC(=O)/C(C)=C\C=C\[C@H](C)[C@H](O)[C@@H](C)[C@@H](O)[C@@H](C)[C@H](OC(C)=O)[C@@H]1C | rule not met |

Turning now to a further record.
Incoming: Given CO[C@H]1/C=C/O[C@@]2(C)Oc3c(C)c(O)c4c(O)c(c(CN5CCN(c6ccncc6)CC5)c(O)c4c3C2=O)NC(=O)/C(C)=C\C=C\[C@H](C)[C@H](O)[C@@H](C)[C@@H](O)[C@@H](C)[C@H](OC(C)=O)[C@@H]1C , is recorded MIC strictly lower than 1 µg/mL?
Outgoing: rule not met

====

Each entry below lists one item and its recorded MIC value.
tested on: Escherichia coli; assay: Antimicrobial activity against Escherichia coli ATCC 25922 incubated for 18 hrs by serial microdilution method; format: functional; settings: ATCC 25922, 18 h

| Compound structure string | MIC |
| --- | --- |
| CO[C@H]1/C=C/O[C@@]2(C)Oc3c(C)c(O)c4c(O)c(c(/C=N/NC5CCCCC5)c(O)c4c3C2=O)NC(=O)/C(C)=C\C=C\[C@H](C)[C@H](O)[C@@H](C)[C@@H](O)[C@@H](C)[C@H](OC(C)=O)[C@@H]1C | > 8 µg/mL |

Consider the additional compound presented here.
Incoming: Can you look up MIC on Escherichia coli for CO[C@H]1/C=C/O[C@@]2(C)Oc3c(C)c(O)c4c(O)c(c(CN5CCN(c6ccccn6)CC5)c(O)c4c3C2=O)NC(=O)/C(C)=C\C=C\[C@H](C)[C@H](O)[C@@H](C)[C@@H](O)[C@@H](C)[C@H](OC(C)=O)[C@@H]1C ?
Outgoing: > 8 µg/mL
